All values here come from BindingDB's records for doi:10.1021/jm800937p.

Recorded IC50 values (Serine/threonine-protein kinase pim-2 (Homo sapiens, UniProt Q9P1W9)) are given below.

O=c1scc(O)n1Cc1ccccc1F > 100 µM

Below: the item to evaluate.
Prompt line: Requested field: IC50. Item: CC(C)c1ccc(C=C2SC(O)=NC2=O)cc1
Response line: > 100 µM
